system: MALME-3M melanoma; experiment: NCI tumour cell line growth inhibition, 48 h
Where TGI equals or exceeds 8 µM, the correct label is met; where it does not, the label is not met.

Worked examples follow.
CCOC(=O)[C@@H](C)C[C@H](Cc1ccccc1)NC(=O)c1nc([C@@H](C[C@H](C(C)C)N(C)C(=O)[C@@H](NC(=O)[C@H]2CCCCN2C)C(C)C)OC(C)=O)sc1CCOCc1ccccc1 | not met
CC12OOC(c3ccccc31)c1c2ccc2ccccc12 (stereo not given) | not met
N#Cc1cnc(-n2[nH]c3c(c2=O)CCCC3)[nH]c1=O | met
COc1c(C)cc(O)cc1C=O | met
O=P1(Oc2ccccc2)N=P(c2ccccc2)(c2ccccc2)C=C(c2ccc(Cl)cc2)N1 (stereo not given) | met
CC(=O)Nc1ccccc1-c1nc2ccccc2nc1C | met
NC(CSCc1ccc(I)cc1)C(=O)O (stereo not given) | met
N.N.NCCCCCN.O=C([O-])CCl.O=C([O-])CCl.O=C([O-])CCl.O=C([O-])CCl.[Pt+4].[Pt+4] | met

Qu. Please check the record COc1cc(C2S/C(=C/c3ccccc3)C(=O)N2c2ccc(NC(C)=O)cc2)cc(OC)c1OC (stereo not given) and state if its TGI is at or above 8 µM.
Ans. met

Qu. Quick check: does O=C1CC(c2c(-c3ccccc3)[nH]c3ccccc23)C(=O)N1 (stereo not given) have TGI greater than or equal to 8 µM?
Ans. met

Qu. For this molecule, is measured TGI 8 µM or higher? Cc1c(C)c(C)c(CC2(C)CSC2)c(CC2(C)CSC2)c1C
Ans. met

Qu. Is it the case that CC1=NN(c2nc(N)nc(CBr)n2)C(C)(C)C1 has TGI reaching or exceeding 8 µM?
Ans. not met

Qu. Decide: TGI of O=C1C(C(O)(C(F)(F)Cl)C(F)(F)Cl)CCCC1C(O)(C(F)(F)Cl)C(F)(F)Cl (stereo not given) >= 8 µM?
Ans. met

Qu. Kindly determine if TGI recorded for CCOC(=O)CCC(NC(=O)Cc1ccc(Nc2nc3ccccc3nc2-c2cccs2)cc1)C(=O)OCC (stereo not given) is above or exactly 8 µM.
Ans. met

Qu. Is it the case that COc1ccc(/C=C(/C(=O)N2CCN(c3ccccc3)CC2)c2cc(OC)c(OC)c(OC)c2)cc1N has TGI reaching or exceeding 8 µM?
Ans. met

Qu. For this molecule, is measured TGI 8 µM or higher? Clc1ccc(Nc2nnc(CCCCCCCCc3nnc(Nc4ccc(Cl)cc4)o3)o2)cc1
Ans. met

###

tested on: TK-10 renal; experiment: NCI tumour cell line growth inhibition, 48 h; in the data active means GI50 below about 0.43 µM; inactive means the rest
Parameter call: string, one of 1 (active), 0 (inactive)

Solved entries:
NS(=O)(=O)OCC1OC(n2cnc3cncnc32)C(O)C1O (centres undefined) | 1
COC1=CC(c2ccc[nH]2)=N/C1=C\c1[nH]c(C)c(CC(=O)OCc2ccccc2)c1CCC(=O)OCc1ccccc1 | 1
COc1cccc(CCC2CCCN(c3cc(C)nc(N)n3)C2)c1 (centres undefined) | 0
OC(c1cc(-c2cccc(Cl)c2)nc2ccccc12)C1CCCCN1 (centres undefined) | 0
C[C@]12CC[C@@H]3c4cc(OC(F)F)c(O)cc4CC[C@H]3[C@@H]1CC[C@@H]2OS(N)(=O)=O | 0
C=CCC(N[C@@H](CO)c1ccccc1)c1cn(Cc2ccccc2Cl)c(=O)n(Cc2ccccc2Cl)c1=O (some centres undefined) | 0

Qu. I'd appreciate the recorded outcome for N#Cc1c(NC(=O)NCc2ccccc2)sc2c1CCCC2 from this test.
Ans. 0

Qu. Tell me the assay call for COc1cc(/C=C2\C[C@H]3[C@@H]4CC=C5C[C@@H](O)CC[C@]5(C)[C@H]4CC[C@]3(C)[C@H]2O)ccc1OCCN1CCCC1 please.
Ans. 0

Qu. How did this test come out for CCOC(=O)c1ccccc1OC(=O)NNc1ccccc1 ?
Ans. 0

###

test system: MCF7 breast; assay: NCI tumour cell line growth inhibition, 48 h; in the data active means GI50 below about 0.43 µM; inactive means the rest
Your response should consist of one outcome taken from active, inactive

Qu. Called result for CC[C@@H]1[C@@H](C)O[C@@](O)([C@@H](C)[C@H](O)[C@H](C)[C@H]2OC(=O)/C=C/C=C/[C@H](C)[C@@H]([C@@H](C)[C@@H](O)[C@H](C)[C@@]3(O)C[C@@H](O[C@H]4C[C@@H](O)[C@H](O)C(C)O4)[C@H](CC)[C@@H](C)O3)OC(=O)/C=C/C=C/[C@@H]2C)C[C@H]1O[C@@H]1C[C@@H](O)[C@H](O)C(C)O1 (some centres not stated)
Ans. active

Qu. Fill in: this test's call for N#Cc1c(NC(=O)NCc2ccccc2)sc2c1CCCC2 is ___
Ans. active

Qu. What did this assay record as the result for O=C(/C=C/c1ccco1)c1cc(F)c(Cl)cc1Cl ?
Ans. inactive

Qu. Give the logged outcome of this assay for the following molecule: CSC1=Nc2c(c(C)c(-c3ccccc3)n2CCCN2CCCCC2)C2=NC(=O)C[C@H](C)N12
Ans. inactive

Qu. What call does the record list for CCC(CC)c1nc(Nc2ccc(C(=O)OC)cc2)c2ccccc2n1 ?
Ans. inactive

Qu. How did this test come out for CC1(C)N=C(N)N=C(N)N1c1ccc(CCCCc2ccccc2)c(Cl)c1 ?
Ans. active

Qu. What did this assay record as the result for COc1ccc(/C=C(/C(=O)N2CCN(c3ccccc3)CC2)c2cc(OC)c(OC)c(OC)c2)cc1N ?
Ans. active

###

test system: NCI-H522 lung; assay: NCI tumour cell line growth inhibition, 48 h
Reported Metric: GI50

Reference set (4 entries):
COC1C(CO)OC(n2c3ccccc3c3c4c(c5c6ccccc6[nH]c5c32)C(=O)NC4=O)C(O)C1O (stereo not given) | < 0.01 µM
Cc1ccc(NC(=O)c2ccc(CN3CCN(C)CC3)cc2)cc1Nc1nccc(-c2cccnc2)n1 | 16.1 µM
CCOC(=O)c1ccccc1OC(=O)NNc1ccccc1 | 1.67 µM
O=C(/C=C/c1ccco1)c1cc(F)c(Cl)cc1Cl | 18.4 µM

So for C[n+]1c(/C=C/c2c[nH]c3ccccc23)ccc2ccccc21 , the logged GI50 turned out to be 11.8 µM

###

test system: UACC-257 melanoma; experiment: NCI tumour cell line growth inhibition, 48 h
Items are presented alongside their recorded TGI.

CCCCCCCCCCCCCCCCCCNc1ccn(C2OC(COP(=O)(O)OCC3OC(n4cc(C)c(=O)[nH]c4=O)CC3F)C(O)C2O)c(=O)n1 (centres undefined) | 27.8 µM

Here is another compound to look at.
Simply: CC1=NN(C(=O)c2ccccc2O)C(=O)/C1=C/c1cccc(O)c1 , UACC-257 melanoma, TGI = > 100 µM

###

test system: PC-3 prostate; assay: NCI tumour cell line growth inhibition, 48 h; in the data active = GI50 below about 0.43 µM; inactive = the rest
API: response.call in active, inactive

COc1ccc(/C=C(/C(=O)N2CCN(c3ccccc3)CC2)c2cc(OC)c(OC)c(OC)c2)cc1N | active
CC(C)(C)N1CCC1CN (centres undefined) | inactive
O=C(/C=C/c1ccco1)c1cc(F)c(Cl)cc1Cl | inactive
NC1=CC(=O)c2cccnc2C1=O | inactive

Qu. What was the test verdict on COC(=O)[C@@H](C)C[C@H](Cc1cn(C)c2ccccc12)NC(=O)c1csc([C@@H](C[C@H](C(C)C)N(C)C(=O)[C@@H](NC(=O)[C@H]2CCCCN2C)C(C)C)OC(C)=O)n1 ?
Ans. active

###

Entries and their measured TGI follow.
system: OVCAR-5 ovarian; experiment: NCI tumour cell line growth inhibition, 48 h

FC(F)(F)c1ccc(Cc2nc3cc4ccccc4cc3[nH]2)cc1 | > 100 µM
O=c1[nH]nc(Cc2ccc(Cl)cc2)n1/N=C/c1ccco1 | > 100 µM

The recorded TGI for N#C[C@H](C(=O)c1ccccc1F)c1nc2ccccc2s1 is > 100 µM

compound Nc1ccccc1Nc1ccccc1C(=O)[O-].Nc1ccccc1Nc1ccccc1C(=O)[O-].[Zn+2] , TGI observed: > 100 µM

For COC(=O)C1=Cc2cc(OC)c(OC)c(OC)c2[C@H](c2cc(OC)c(OC)c(OC)c2)C1C(=O)OC (stereo partly specified) the compound record lists TGI as > 100 µM

According to the records, this compound C=CC(=O)NCCSCCCOC1(C(=O)O)CC(O)C(NC(C)=O)C(C(O)C(O)CO)O1 (stereo unspecified) displays TGI of > 100 µM

Summary for this compound, OC(c1cc(-c2cccc(Cl)c2)nc2ccccc12)C1CCCCN1 (stereo unspecified) : TGI is 3.29 µM

###

system: T-47D breast; experiment: NCI tumour cell line growth inhibition, 48 h; in the data active = GI50 below about 0.43 µM; inactive = the rest
Respond using exactly one of the listed classes: 1 for active, -1 for inactive

O=C1/C(=C\c2ccc(F)cc2)CN(C(=O)c2ccccc2)C/C1=C\c1ccc(F)cc1 | -1
Cc1ccc(Cl)cc1Nc1nc(C(F)(F)F)ccc1C(=O)N/N=C/c1cccnc1 | -1
O=C(COc1ccc(/C=C2\COc3ccccc3C2=O)cc1)Nc1nccs1 | -1

Qu. Could you kindly confirm the outcome this assay logged for C[C@]12CC[C@@H]3c4cc(OC(F)F)c(O)cc4CC[C@H]3[C@@H]1CC[C@@H]2OS(N)(=O)=O ?
Ans. -1
